assay.target: Cholinesterase (Homo sapiens, UniProt P06276)
Sequence (P06276 whole entry): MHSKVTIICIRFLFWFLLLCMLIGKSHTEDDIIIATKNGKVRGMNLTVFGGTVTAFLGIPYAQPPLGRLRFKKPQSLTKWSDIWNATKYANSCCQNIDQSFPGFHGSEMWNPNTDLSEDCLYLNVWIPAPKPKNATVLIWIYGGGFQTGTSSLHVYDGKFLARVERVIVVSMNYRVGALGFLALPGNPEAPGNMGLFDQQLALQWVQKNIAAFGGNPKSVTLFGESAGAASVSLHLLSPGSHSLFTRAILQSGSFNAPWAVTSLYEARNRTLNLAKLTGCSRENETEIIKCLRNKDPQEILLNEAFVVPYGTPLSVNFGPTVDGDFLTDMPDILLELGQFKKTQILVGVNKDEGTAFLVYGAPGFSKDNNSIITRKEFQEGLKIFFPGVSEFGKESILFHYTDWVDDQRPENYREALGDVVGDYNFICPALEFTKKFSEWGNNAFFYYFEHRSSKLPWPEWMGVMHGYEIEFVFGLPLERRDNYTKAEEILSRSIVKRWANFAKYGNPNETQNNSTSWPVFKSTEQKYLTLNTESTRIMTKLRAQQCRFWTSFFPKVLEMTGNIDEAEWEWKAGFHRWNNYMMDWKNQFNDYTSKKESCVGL
Hi there, I'd appreciate the recorded IC50 for every entry that follows.

Q: Returns the measured IC50 for the input compound. Input: COc1cccc2cc[n+](-c3cccc(C#N)c3)cc12
Ans: > 250 µM

Q: Returns the measured IC50 for the input compound. Input: COc1cccc2cc[n+](-c3ccc(Br)cc3Br)cc12
Ans: 131 µM

Q: Returns the measured IC50 for the input compound. Input: COc1cccc2cc[n+](-c3ccccc3Br)cc12
Ans: 89.5 µM

Q: Returns the measured IC50 for the input compound. Input: COc1cccc2cc[n+](-c3ccc(Cl)cc3)cc12
Ans: 104 µM

Q: Returns the measured IC50 for the input compound. Input: COc1cccc2cc[n+](-c3ccc(Cl)cc3Cl)cc12
Ans: 232 µM

Q: Returns the measured IC50 for the input compound. Input: COc1cccc2c1C=[N+](c1cccc(C#N)c1)CC2
Ans: 110 µM

Q: Returns the measured IC50 for the input compound. Input: COc1cccc2cc[n+](-c3ccc(F)cc3)cc12
Ans: 143 µM

Q: Returns the measured IC50 for the input compound. Input: COc1cccc2c1C=[N+](c1ccc(I)cc1F)CC2
Ans: 128 µM

Q: Returns the measured IC50 for the input compound. Input: COc1cccc2cc[n+](-c3ccc(Br)cc3F)cc12
Ans: 196 µM

Q: Returns the measured IC50 for the input compound. Input: COc1cccc2c1C=[N+](c1ccc(Br)cc1Br)CC2
Ans: 116 µM

Q: Returns the measured IC50 for the input compound. Input: COc1cccc2c1C=[N+](c1ccccc1)CC2
Ans: 35.4 µM
